ASSAY PROTOCOL: PSAC antagonists in infected red cells, primary screen, cell-based, P. falciparum Indochina, OD700, 2 h (AID 1155);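 also: lysis reports solute entry through the parasite surface anion channel PSAC; channel blockers reduce lysis of infected cells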
TEST PARAMETERS: P. falciparum Indochina infected erythrocytes, osmotic lysis OD700; higher = more signal, called active from +8 up or from −8 down
MEASUREMENT LABEL: z-score
Give bare numbers.

The following compounds have reported results that may help.
COMPOUND	z-score
COC(=O)CC=C[C@@H](C)[C@@H]1C=C[C@H](O)[C@@H](CO)O1	0.447
CON=C(C)CCC(=O)OC[C@H]1O[C@H](c2ccccc2)C=C[C@@H]1Oc1ccc(OC)cc1	1.17
CC(C)=CCCC(C)=CCON=C1C[C@@H](O)[C@@H](O)[C@@H]2[C@@H]3C(=O)N(c4ccc(F)cc4F)C(=O)[C@@H]3CC[C@H]12	0.545
CO[C@@H]1COC(=O)[C@@H](C)COC(=O)[C@@H](C)NC(=O)CC=C[C@@H]1C	-1.26

// each listed compound needs a value for z-score
1. C=CC[C@@H]1C=C[C@H](ON=C2[C@H]3CCn4c(=O)n(-c5ccccc5)c(=O)n4[C@H]3[C@H](O)[C@@H]3O[C@H]23)[C@@H](CO)O1
2. CC(=O)Nc1ccc([C@@H]2N[C@H](C(=O)O)CC[C@H]2C)cc1
3. CCOC(=O)C1=NO[C@]2(C=C(Br)C3(OCCCO3)[C@H]3O[C@H]32)C1
4. CCOC(=O)[C@H](Cc1ccccc1)NC(=O)CCC1CC(OC(=O)NCc2ccc3c(c2)OCO3)CC2(CCCC(COC(=O)NCCc3ccccc3OC)O2)O1 (stereo not given in full)
5. CCc1cc2c(nc1CC)CCN(CCC(C)=NO[C@@H](C)c1cn([C@H](CO)Cc3ccccc3)nn1)C2
6. CON=CC[C@@H]1C=C[C@H](OC(C)=O)[C@@H](COC(C)=O)O1
7. CC(C)CON=C1C[C@@H](O)[C@@H](O)[C@@H]2[C@@H]3C(=O)N(c4ccc(F)cc4F)C(=O)[C@@H]3CC[C@H]12

## Result
1.07
0.182
0.142
0.627
0.586
0.0956
-0.996

// input: 4 compounds below; output: z-score for each
1. CCOC(=O)CCN1C(=O)[C@H]2[C@H]3[C@H](O)[C@H](O)CC(=NOCC(C)C)[C@H]3CC[C@H]2C1=O
2. COc1cccc([C@H]2Oc3ccc(OC)cc3C(=NO[C@@H]3O[C@H](COC(C)=O)[C@@H](OC(C)=O)[C@H](OC(C)=O)[C@H]3OC(C)=O)[C@@H]2O)c1
3. C[C@@H](c1ccccc1)N1C(=O)[C@H]2[C@H]3[C@H](O)[C@H](O)CC(=NO[C@@H]4O[C@H](CO)[C@@H](O)[C@H](O)[C@H]4O)[C@@H]3CC[C@H]2C1=O
4. COC(=O)CC=C[C@@H](C)[C@@H](C=NOC(C)CN1CCCc2nc(C)c(C)cc21)OC (stereo not given in full)

## Result
-0.153
-0.0728
-0.076
0.633

----------
Give measured z-score for each item. Keep answers brief.
ASSAY PROTOCOL: basal 3T3-L1 adipocyte mitochondrial potential changes, profiling panel, cell-based, JC-1 fluorescence, 3T3-L1 adipocytes, 24 h, 100 nL compound (AID 1168); also: test concentration not given here
TEST PARAMETERS: JC-1 mitochondrial fluorescence, higher = more signal, called active from +8 up or from −8 down
Numbers only.

MOLECULE	MEASUREMENT LABEL	MEASUREMENT
CO[C@@H]1COC(=O)[C@@H](C)NC(=O)CC=C[C@@H](C)[C@H](NS(=O)(=O)c2ccc(C)cc2)COC(=O)[C@H](C)NC(=O)CC=C[C@H]1C	z-score	-0.172
CCCNC(=O)OC[C@H]1O[C@H](c2ccccc2)C=C[C@@H]1Oc1ccc(OC)cc1	z-score	-0.307
O=C1C[C@@H](O)[C@@H](O)[C@@H]2[C@@H]3C(=O)N(Cc4ccc5c(c4)OCO5)C(=O)[C@@H]3CC[C@H]12	z-score	-0.221
CC(CCN1CCCc2nc(C)c(C)cc21)=NO[C@@H](C)c1cc(-c2c(C)cc(C)cc2C)no1	z-score	-0.127
CC=CC1=C(CO)C(=O)[C@@H]2O[C@@H]2C1=O	z-score	-0.316

Kindly give each listed record's z-score.
1. CC(=O)OC[C@H]1O[C@H](C#Cc2ccccc2)C=C[C@@H]1OC(C)=O
2. Cc1ccc(S(=O)(=O)NC(CCc2ccccc2)CC(=O)C(C)(C)C)cc1 (stereo unspecified)
3. COc1ccc(O[C@H]2C=C[C@@H](c3ccccc3)O[C@@H]2CON=C(C)C)cc1
4. CON=CC[C@@H]1C=C[C@H](OC(C)=O)[C@@H](COC(C)=O)O1
5. COC(=O)CC=C[C@@H](C)[C@@H](C=NO[C@@H](C)c1cc(-c2c(C)cc(C)cc2C)no1)NS(=O)(=O)c1ccc(C)cc1
6. Cn1c(=O)n2n(c1=O)[C@H]1[C@H](O)[C@@H]3O[C@@H]3C(=NOCc3ccccc3)[C@H]1CC2
7. CCCNC(=O)OC[C@H]1O[C@H](CCON=C(C)CCN2CCc3nc(CC)c(CC)cc3C2)C=C[C@@H]1Oc1ccc(OC)cc1

## Result
1. 0.458
2. -0.255
3. 0.148
4. -0.835
5. -1.08
6. -0.383
7. -1.48

----------
ASSAY PROTOCOL: yeast growth modulation, basal conditions, primary screen, YJM789 clinical isolate, OD600, 24 h (AID 1089);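 also: growth of clinical yeast isolate S. cerevisiae YJM 789 seeded 1000 cells per well; test concentration not given here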
TEST PARAMETERS: S. cerevisiae YJM789 growth, higher = more signal, called active from +8 up or from −8 down
Activity calls are given as the source filed them.
MEASUREMENT LABEL: z-score

Worked set:
MOLECULE	MEASUREMENT LABEL	MEASUREMENT
CC(CCN1CCCCc2nc(C)c(C)cc21)=NO[C@@H](C)c1cn([C@H](CO)Cc2ccccc2)nn1	z-score	0.725 (inactive)
COc1ccc(COC(=O)NN=C2C[C@@H](O)[C@@H](O)[C@@H]3[C@@H]4C(=O)N(Cc5ccccc5)C(=O)[C@@H]4CC[C@H]23)cc1	z-score	-0.457 (inactive)
CCOC(=O)[C@H](CC(C)C)NC(=O)CCC1CC(OC(=O)NCCc2ccc(F)cc2)CC2(CCCC(COC(=O)NCCc3ccc(Cl)cc3)O2)O1 (stereo not given in full)	z-score	-0.623 (inactive)
CCOC(=O)CCN1C(=O)[C@H]2[C@H]3[C@H](O)[C@H](O)CC(=NNC(=O)OCc4ccccc4)[C@@H]3CC[C@H]2C1=O	z-score	-0.662 (inactive)
COC(=O)[C@@H]1CC[C@H](C)[C@@H](c2ccc(C)cc2)N1C(=O)c1ccc(C=NOC[C@@H](C)[C@H](OCc2ccccc2)C(C)C)cc1	z-score	-2.56 (inactive)
COc1ccc(O[C@@H]2[C@H](O)CO[C@H]2C=Cc2ccccc2)cc1	z-score	-2.63 (inactive)
CC(=O)OC[C@H]1O[C@H](C#Cc2ccccc2)C=C[C@@H]1OC(C)=O	z-score	0.444 (inactive)
O=C1CCCC(C2=CCCCC2=O)C1 (stereo not given)	z-score	0.222 (inactive)
COC(=O)[C@H](C)NC(=O)CCC1CC(OC(=O)NCCc2ccc(F)cc2)CC2(CCCC(COC(=O)NCCC(C)C)O2)O1 (stereo not given in full)	z-score	-1.79 (inactive)
CO[C@@H]1COC(=O)CC=C[C@@H](C)[C@@H]2C=C[C@H](O)[C@@H](COC(=O)CC=C[C@H]1C)O2	z-score	-0.48 (inactive)

Parameters: items (list). Returns: z-score for each item.
1. CCOC(=O)[C@H](CC(C)C)NC(=O)CCC1CC(OC(=O)NCc2ccc3c(c2)OCO3)CC2(CCCC(COC(=O)NCC(c3ccccc3)c3ccccc3)O2)O1 (stereo not given in full)
2. COC(=O)CC=C[C@@H](C)[C@@H](C=NO[C@@H]1O[C@H](COC(C)=O)[C@@H](OC(C)=O)[C@H](OC(C)=O)[C@H]1OC(C)=O)OC
3. CC(C)CON=C1C[C@@H](O)[C@@H](O)[C@@H]2[C@@H]3C(=O)N(c4ccc(F)cc4F)C(=O)[C@@H]3CC[C@H]12

## Result
1: 0.417 (inactive); 2: 0.492 (inactive); 3: -0.254 (inactive)

Count: 2. Required value per item: z-score.
1. CCOC(=O)[C@H](Cc1ccccc1)NC(=O)CCC1CC(OC(=O)NCc2ccc3c(c2)OCO3)CC2(CCCC(COC(=O)NCCC(C)C)O2)O1 (stereo not given in full)
2. CCOC(=O)NN=C1C[C@@H](O)[C@@H](O)[C@@H]2[C@@H]3C(=O)N(c4cccc(Oc5ccccc5)c4)C(=O)[C@@H]3CC[C@H]12

## Result
["0.648 (inactive)", "-1.57 (inactive)"]
